System: HCV replicon, genotype-1a variant with glutamine 30 changed to glutamate in the NS5A protein
Test: microbe, parasite or virus in culture
Type: cell-based, HCV genotype 1a
Details: HCV replicon genotype 1a Q30E (Q→E) variant; test compound titrated with an NS5A-targeting compound (BMS-790052 fixed at 200 nM); ranking of synergist activity
Here, each record is paired with measured Fold-Synergistic 1a (Q30E) data.

Examples with answers:
Data request, read-out Fold-Synergistic 1a (Q30E), for CC(C)(C)OC(=O)N1C[C@H](O)C[C@H]1C(=O)N[C@H](c1nc(-c2ccc(-c3ccc(-c4c[nH]c([C@@H](NC(=O)[C@@H]5C[C@@H](O)CN5C(=O)OC(C)(C)C)C(C)(C)C)n4)cc3)cc2)c[nH]1)C(C)(C)C [Compound W-96]
>100 fold

Let us now turn to CC(C)(C)[C@H](NC(=O)C(=O)c1cccs1)c1nc(-c2ccc(-c3ccc(-c4c[nH]c([C@@H](NC(=O)C(=O)c5cccs5)C(C)(C)C)n4)cc3)cc2)c[nH]1 [Compound W-19]
>100 fold

Also check CC(C)CC(=O)NC1(c2nc(-c3ccc(-c4ccc(-c5c[nH]c(C6(NC(=O)CC(C)C)CCCCC6)n5)cc4)cc3)c[nH]2)CCCCC1 [Compound N-24]
<10 fold

Repeat with CCCC[C@@H](CC(=O)OC(C)(C)C)C(=O)N[C@H](c1nc(-c2ccc(-c3ccc(-c4c[nH]c([C@@H](NC(=O)[C@@H](CCCC)CC(=O)OC(C)(C)C)C(C)(C)C)n4)cc3)cc2)c[nH]1)C(C)(C)C [Compound S-260]
>100 fold

In the following, a different compound is considered.
# lookup: Fold-Synergistic 1a (Q30E) of Cc1ccc(S(=O)(=O)N[C@H](c2ncc(-c3ccc(-c4ccc(-c5cnc([C@@H](NS(=O)(=O)c6ccc(C)cc6)C(C)C)[nH]5)cc4)cc3)[nH]2)C(C)C)cc1 [Compound Y-58]
>100 fold
